target: human LPA1 (Homo sapiens); test: LPA1 functional antagonist assay (LPA-induced calcium flux); details: CHO cells overexpressing human LPA1; inhibition of calcium flux induced by 10 nM LPA; read-out: hLPA1 IC50
Sequence (Q92633 whole entry): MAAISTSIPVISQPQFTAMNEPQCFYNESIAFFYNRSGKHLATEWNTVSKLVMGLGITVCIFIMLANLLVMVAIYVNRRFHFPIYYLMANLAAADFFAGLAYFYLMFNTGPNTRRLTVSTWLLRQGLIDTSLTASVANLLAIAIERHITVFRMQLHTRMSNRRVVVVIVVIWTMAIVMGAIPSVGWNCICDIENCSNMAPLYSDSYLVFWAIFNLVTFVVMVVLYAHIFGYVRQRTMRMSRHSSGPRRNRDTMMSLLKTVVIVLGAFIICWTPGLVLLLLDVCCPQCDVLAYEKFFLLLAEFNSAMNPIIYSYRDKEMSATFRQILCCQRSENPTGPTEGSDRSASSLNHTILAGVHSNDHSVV
pIC50: −log10 of the molar value.
Use 7 as the dividing line for pIC50, with the line itself on the Condition met side and lower values as Condition not met.

{"molecule": "Cc1noc(-c2ccc(O[C@H]3CC[C@H](C(=O)O)C3)cc2)c1NC(=O)O[C@H](C)c1ccccc1 (single isomer, unassigned) [Example 2]", "measured target": "human LPA1 (Homo sapiens)", "classification": "Condition met"}
{"molecule": "Cc1nc(-c2onc(C)c2COC(=O)N(C)C2CCCC2)ccc1O[C@H]1CC[C@H](C(C)(C)C(=O)O)C1 (racemic) [Example 52]", "measured target": "human LPA1 (Homo sapiens)", "classification": "Condition met"}
{"molecule": "Cc1nc(-c2nnn(C)c2CNc2nccc(-c3ccccn3)n2)ccc1O[C@@H]1CC[C@@H](CC(=O)O)C1 (relative stereo) [Example 38]", "measured target": "human LPA1 (Homo sapiens)", "classification": "Condition not met"}
{"molecule": "Cc1noc(-c2ccc(O[C@@H]3CC[C@@H](CC(=O)O)C3)cn2)c1CNc1nccc(-c2ccccn2)n1 (racemic) [Example 29]", "measured target": "human LPA1 (Homo sapiens)", "classification": "Condition met"}

Consider the record given below.
stdin: Reported pIC50 reaches at least 7 for Cc1nc(-c2nnn(C)c2COC(=O)N(C)CCCF)ccc1O[C@H]1CC[C@H](CC(=O)O)C1 (racemic) [Example 65] ?
stdout: Condition not met
